experiment: CHI Log D procedure; assay type: physicochemical; details: pH 7.4
Listed molecules paired with reported CHI Log D

Asked: Name the recorded CHI Log D of the item CC(=O)N1CCC[C@]12CC=CCCCC1(CCCC=CCCCOC(=O)N3CC[C@@](C(=O)N[C@@H](Cc4ccsc4)C(=O)N[C@@H](Cc4csc5ccccc45)C(=O)N[C@@H](Cc4c[nH]cn4)C(N)=O)(C3)NC(=O)[C@H](CC(N)=O)NC(=O)[C@H](Cc3ccccc3)NC(=O)[C@H](C)NC(=O)[C@H](C)NC(=O)[C@H](CN(CC(=O)O)CC(F)(F)F)NC(=O)[C@H](CC(=O)O)NC1=O)NC(=O)[C@H](CC(C)(C)C)NC(=O)[C@H](CC(=O)O)NC2=O (stereo partly drawn) [I-770] in your answer.
Given back: 2.358

Asked: Name the recorded CHI Log D of the item CC(=O)N1CCC[C@]12CC=CCCCC1(CCCC=CCCCCCC[C@@](C)(C(=O)N[C@@H](Cc3ccccc3)C(=O)N[C@@H](Cc3csc4ccccc34)C(=O)N[C@@H](CCC(N)=O)C(N)=O)NC(=O)[C@H](CCC(N)=O)NC(=O)[C@H](Cc3ccccc3)NC(=O)[C@H](C)NC(=O)[C@H](C)NC(=O)[C@H](CCC(=O)O)NC(=O)[C@H](Cc3nn[nH]n3)NC1=O)NC(=O)[C@H](C)NC(=O)[C@H](CC(=O)O)NC2=O (stereo partly drawn) [I-415] in your answer.
Given back: 2.125

###

molecular target: full-length beta-Catenin (Uniprot ID P35222) (Homo sapiens, UniProt P35222); construct: 10 nM full-length beta-Catenin (Uniprot ID P35222); assay: Fluorescence polarization IC50 (beta-catenin / 5FAM-TCF4 10-53 competition); assay type: binding; settings: read-out: beta-Catenin FP IC50
Sequence (P35222 whole entry): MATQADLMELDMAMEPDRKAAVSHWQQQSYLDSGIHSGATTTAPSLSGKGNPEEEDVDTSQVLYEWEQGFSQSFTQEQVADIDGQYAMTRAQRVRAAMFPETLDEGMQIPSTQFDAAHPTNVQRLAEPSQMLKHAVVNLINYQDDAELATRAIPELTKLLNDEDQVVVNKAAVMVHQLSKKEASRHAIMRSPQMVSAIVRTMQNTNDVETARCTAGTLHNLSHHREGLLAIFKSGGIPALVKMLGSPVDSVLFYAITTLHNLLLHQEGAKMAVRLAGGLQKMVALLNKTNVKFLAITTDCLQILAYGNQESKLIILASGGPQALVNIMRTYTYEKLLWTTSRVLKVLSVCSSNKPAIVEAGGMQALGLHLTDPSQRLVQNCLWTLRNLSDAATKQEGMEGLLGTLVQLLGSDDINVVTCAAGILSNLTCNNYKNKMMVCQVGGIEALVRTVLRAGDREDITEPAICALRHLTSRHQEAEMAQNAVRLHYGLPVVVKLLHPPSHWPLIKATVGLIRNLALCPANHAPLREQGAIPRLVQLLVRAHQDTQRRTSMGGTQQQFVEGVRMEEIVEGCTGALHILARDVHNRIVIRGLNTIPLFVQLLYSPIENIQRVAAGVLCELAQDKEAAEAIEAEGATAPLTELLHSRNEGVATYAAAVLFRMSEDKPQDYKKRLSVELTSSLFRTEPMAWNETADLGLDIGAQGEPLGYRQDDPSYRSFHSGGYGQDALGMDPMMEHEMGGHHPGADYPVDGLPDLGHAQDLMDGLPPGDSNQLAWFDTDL
Listed compounds paired with reported pIC50
In simple prose, pIC50 is minus the logarithm base ten of a concentration in moles per litre.

CC(=O)N1CCC[C@]12CC=CCCCC1(CCCC=CCCCOC(=O)N3CC[C@@](C(=O)N[C@@H](Cc4ccccc4)C(=O)N[C@@H](Cc4csc5ccccc45)C(=O)N[C@@H](CCC(N)=O)C(N)=O)(C3)NC(=O)[C@H](CO)NC(=O)[C@H](Cc3cccc(C(F)(F)F)c3)NC(=O)[C@H](C)NC(=O)[C@H](C)NC(=O)[C@H](CC(=O)O)NC(=O)[C@H](CC(=O)O)NC1=O)NC(=O)[C@H](CC1CCCCC1)NC(=O)[C@H](CC(=O)O)NC2=O (some centres unmarked) [I-1125]	7.80

Asked: Name the recorded pIC50 of the item CC(=O)N1CCC[C@]12CC=CCCCC1(CCCC=CCCCOC(=O)N3CC[C@@](C(=O)N[C@@H](Cc4ccccc4Cl)C(=O)N[C@@H](Cc4csc5ccccc45)C(=O)N[C@@H](C(N)=O)[C@H](C)O)(C3)NC(=O)[C@H](CC(C)C)NC(=O)[C@H](Cc3ccccc3)NC(=O)[C@H](C)NC(=O)[C@H](C)NC(=O)[C@H](CCC(=O)O)NC(=O)[C@H](CC(=O)O)NC1=O)NC(=O)[C@H](CC(C)(C)C)NC(=O)[C@H](CC(=O)O)NC2=O (some centres unmarked) [I-1039] in your answer.
Given back: 7.24

###

Listed compounds paired with reported IC50
biological target: full-length beta-Catenin (Uniprot ID P35222) (Homo sapiens, UniProt P35222); construct: 10 nM full-length beta-Catenin (Uniprot ID P35222); assay: Fluorescence polarization IC50 (beta-catenin / 5FAM-TCF4 10-53 competition); type: binding; settings: read-out: beta-Catenin FP IC50
Form field: result (number plus unit)

CC(=O)N1CCC[C@]12CC=CCCCC1(CCCC=CCCCOC(=O)N3CC[C@@](C(=O)N[C@@H](Cc4ccsc4)C(=O)N[C@@H](Cc4csc5ccccc45)C(=O)N[C@@H](CCC(N)=O)C(=O)N[C@@H](CCCCNC(=O)CN4CCN(C)CC4)C(N)=O)(C3)NC(=O)[C@H](CC(N)=O)NC(=O)[C@H](Cc3ccccc3)NC(=O)[C@H](C)NC(=O)[C@H](C)NC(=O)[C@H](CC(=O)O)NC(=O)[C@H](CC(=O)O)NC1=O)NC(=O)[C@H](CC(C)(C)C)NC(=O)[C@H](CC(=O)O)NC2=O (some centres unmarked) [I-906]	8 nM

--- query ---
Asked: Name the recorded IC50 of the item CC(=O)N1CCC[C@]12CC=CCCCC1(CCCC=CCCCOC(=O)N3CC[C@@](C(=O)N[C@@H](Cc4ccccc4Cl)C(=O)N[C@@H](Cc4csc5ccccc45)C(=O)N[C@@H](CCC(N)=O)C(N)=O)(C3)NC(=O)[C@H](CO)NC(=O)[C@H](Cc3ccccc3)NC(=O)[C@H](C)NC(=O)[C@H](C)NC(=O)[C@H](CC(=O)O)NC(=O)[C@H](CC(=O)O)NC1=O)NC(=O)[C@H](Cc1cccc3ccccc13)NC(=O)[C@H](CC(=O)O)NC2=O (some centres unmarked) [I-1108] in your answer.
Given back: 18 nM

###

Listed compounds paired with reported pIC50
biological target: beta-catenin/TCF4 engagement (Homo sapiens); construct: expressed in transfected cells; host or cells: HEK293; assay: Nano-BRET target engagement assay (B-cat-Halo & TCF4-Luc in HEK293 cells); assay type: cell-based; details: absolute IC50; read-out: NanoBRET Abs IC50
In simple prose, pIC50 is minus the logarithm base ten of a concentration in moles per litre.

Examples with their reported pIC50 follow.
CC(=O)N1CCC[C@]12CC=CCCCC1(CCCC=CCCCCCC[C@@](C)(C(=O)N[C@@H](Cc3ccccc3Cl)C(=O)N[C@@H](Cc3csc4ccccc34)C(=O)N[C@@H](CCC(N)=O)C(N)=O)NC(=O)[C@H](CC(N)=O)NC(=O)[C@H](Cc3ccccc3)NC(=O)[C@H](C)NC(=O)[C@H](C)NC(=O)[C@H](CC(=O)O)NC(=O)[C@H](CC(=O)O)NC1=O)NC(=O)[C@H](CC(C)(C)C)NC(=O)[C@H](CC(=O)O)NC2=O (stereo partly drawn)	4.80
CCCC[C@@H]1NC(=O)[C@H](Cc2ccccc2)NC(=O)[C@H](C)NC(=O)[C@H](C)NC(=O)[C@H](Cc2cccc(C(=O)O)c2)NC(=O)[C@H](CC(=O)O)NC(=O)C2(CCCC=CCCCOC(=O)N3CC[C@@](C(=O)N[C@@H](Cc4ccccc4C(F)(F)F)C(=O)N[C@@H](Cc4csc5ccccc45)C(=O)N[C@@H](CCC(=O)N4CCOCC4)C(N)=O)(C3)NC1=O)CCCC=CC[C@]1(CCCN1C(C)=O)C(=O)N[C@@H](CC(=O)O)C(=O)N[C@@H](CC(C)(C)C)C(=O)N2 (stereo partly drawn)	5.40
CC(=O)N1CCC[C@]12CC=CCCCC1(CCCC=CCCCOC(=O)N3CC[C@@](C(=O)N[C@@H](Cc4ccsc4)C(=O)N[C@@H](Cc4csc5ccccc45)C(=O)N[C@@H](Cc4cccc(C(N)=O)c4)C(N)=O)(C3)NC(=O)[C@H](CC(C)C)NC(=O)[C@H](Cc3ccccc3)NC(=O)[C@H](C)NC(=O)[C@H](C)NC(=O)[C@H](CN(CC(=O)O)CC(F)(F)F)NC(=O)[C@H](CC(=O)O)NC1=O)NC(=O)[C@H](CC(C)(C)C)NC(=O)[C@H](CC(=O)O)NC2=O (stereo partly drawn)	4.92
CC(=O)N1CCC[C@]12CC=CCCCC1(CCCC=CCCCOC(=O)N3CC[C@@](C(=O)N[C@@H](Cc4ccsc4)C(=O)N[C@@H](Cc4csc5ccccc45)C(=O)N[C@@H](CCC(N)=O)C(N)=O)(C3)NC(=O)[C@H](CC(C)C)NC(=O)[C@H](Cc3ccccc3)NC(=O)[C@H](C)NC(=O)[C@H](C)NC(=O)[C@H](CN(C)CC(=O)O)NC(=O)[C@H](CC(=O)O)NC1=O)NC(=O)[C@H](CC(C)(C)C)NC(=O)[C@H](CC(=O)O)NC2=O (stereo partly drawn)	4.52
CC(=O)N1CCC[C@]12CC=CCCCC1(CCCC=CCCCOC(=O)N3CC[C@@](C(=O)N[C@@H](Cc4ccsc4)C(=O)N[C@@H](Cc4csc5ccccc45)C(=O)N[C@@H](CCC(N)=O)C(N)=O)(C3)NC(=O)[C@H](CC(C)C)NC(=O)[C@H](Cc3ccccc3)NC(=O)[C@H](C)NC(=O)[C@H](C)NC(=O)[C@H](CCN(CC(=O)O)Cc3c(F)c(F)c(F)c(F)c3F)NC(=O)[C@H](CC(=O)O)NC1=O)NC(=O)[C@H](CC(C)(C)C)NC(=O)[C@H](CC(=O)O)NC2=O (stereo partly drawn)	5.10

Asked: Name the recorded pIC50 of the item CC(=O)N1CCC[C@]12CC=CCCCC1(CCCC=CCCCOC(=O)N3CC[C@@](C(=O)N[C@@H](Cc4ccsc4)C(=O)N[C@@H](Cc4csc5ccccc45)C(=O)N[C@@H](CCO)C(N)=O)(C3)NC(=O)[C@H](CC(C)C)NC(=O)[C@H](Cc3ccccc3)NC(=O)[C@H](C)NC(=O)[C@H](C)NC(=O)[C@H](CC(=O)O)NC(=O)[C@H](CC(=O)O)NC1=O)NC(=O)[C@H](CC(C)(C)C)NC(=O)[C@H](CC(=O)O)NC2=O (stereo partly drawn) in your answer.
Given back: 5.19

Asked: Name the recorded pIC50 of the item CCNC(=O)[C@H](CCC(N)=O)NC(=O)[C@H](Cc1csc2ccccc12)NC(=O)[C@H](Cc1ccccc1Cl)NC(=O)[C@]12CCN(C1)C(=O)OCCCC=CCCCC1(CCCC=CC[C@]3(CCCN3C(C)=O)C(=O)N[C@@H](CC(=O)O)C(=O)N[C@@H](CC(C)(C)C)C(=O)N1)C(=O)N[C@@H](CC(=O)O)C(=O)N[C@@H](CN(CC(=O)O)CC(F)(F)F)C(=O)N[C@@H](C)C(=O)N[C@@H](C)C(=O)N[C@@H](Cc1ccccc1)C(=O)N[C@@H]([C@@H](C)O)C(=O)N2 (stereo partly drawn) in your answer.
Given back: 4.94
